Target: PI3-kinase p110-delta/p85-alpha (Homo sapiens, UniProt O00329)
Sequence (P27986 whole entry): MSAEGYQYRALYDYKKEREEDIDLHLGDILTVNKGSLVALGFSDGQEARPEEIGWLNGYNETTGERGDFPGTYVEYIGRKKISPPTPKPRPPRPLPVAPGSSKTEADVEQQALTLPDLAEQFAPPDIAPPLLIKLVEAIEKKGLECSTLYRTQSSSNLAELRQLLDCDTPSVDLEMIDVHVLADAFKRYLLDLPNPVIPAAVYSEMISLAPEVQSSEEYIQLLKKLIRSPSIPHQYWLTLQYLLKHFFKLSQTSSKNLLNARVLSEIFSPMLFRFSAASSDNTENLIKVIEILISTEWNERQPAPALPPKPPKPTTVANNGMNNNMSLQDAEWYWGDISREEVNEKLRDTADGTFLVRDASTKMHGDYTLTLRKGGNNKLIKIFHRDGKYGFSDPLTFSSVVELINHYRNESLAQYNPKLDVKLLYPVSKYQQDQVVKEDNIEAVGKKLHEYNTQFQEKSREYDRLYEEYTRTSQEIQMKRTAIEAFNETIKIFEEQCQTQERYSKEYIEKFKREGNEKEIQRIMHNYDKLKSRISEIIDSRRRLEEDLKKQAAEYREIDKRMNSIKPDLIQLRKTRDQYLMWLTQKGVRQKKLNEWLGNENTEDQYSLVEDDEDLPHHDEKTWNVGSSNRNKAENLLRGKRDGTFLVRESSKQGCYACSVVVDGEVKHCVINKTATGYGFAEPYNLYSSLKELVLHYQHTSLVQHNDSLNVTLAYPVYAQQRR
Sequence (O00329 whole entry): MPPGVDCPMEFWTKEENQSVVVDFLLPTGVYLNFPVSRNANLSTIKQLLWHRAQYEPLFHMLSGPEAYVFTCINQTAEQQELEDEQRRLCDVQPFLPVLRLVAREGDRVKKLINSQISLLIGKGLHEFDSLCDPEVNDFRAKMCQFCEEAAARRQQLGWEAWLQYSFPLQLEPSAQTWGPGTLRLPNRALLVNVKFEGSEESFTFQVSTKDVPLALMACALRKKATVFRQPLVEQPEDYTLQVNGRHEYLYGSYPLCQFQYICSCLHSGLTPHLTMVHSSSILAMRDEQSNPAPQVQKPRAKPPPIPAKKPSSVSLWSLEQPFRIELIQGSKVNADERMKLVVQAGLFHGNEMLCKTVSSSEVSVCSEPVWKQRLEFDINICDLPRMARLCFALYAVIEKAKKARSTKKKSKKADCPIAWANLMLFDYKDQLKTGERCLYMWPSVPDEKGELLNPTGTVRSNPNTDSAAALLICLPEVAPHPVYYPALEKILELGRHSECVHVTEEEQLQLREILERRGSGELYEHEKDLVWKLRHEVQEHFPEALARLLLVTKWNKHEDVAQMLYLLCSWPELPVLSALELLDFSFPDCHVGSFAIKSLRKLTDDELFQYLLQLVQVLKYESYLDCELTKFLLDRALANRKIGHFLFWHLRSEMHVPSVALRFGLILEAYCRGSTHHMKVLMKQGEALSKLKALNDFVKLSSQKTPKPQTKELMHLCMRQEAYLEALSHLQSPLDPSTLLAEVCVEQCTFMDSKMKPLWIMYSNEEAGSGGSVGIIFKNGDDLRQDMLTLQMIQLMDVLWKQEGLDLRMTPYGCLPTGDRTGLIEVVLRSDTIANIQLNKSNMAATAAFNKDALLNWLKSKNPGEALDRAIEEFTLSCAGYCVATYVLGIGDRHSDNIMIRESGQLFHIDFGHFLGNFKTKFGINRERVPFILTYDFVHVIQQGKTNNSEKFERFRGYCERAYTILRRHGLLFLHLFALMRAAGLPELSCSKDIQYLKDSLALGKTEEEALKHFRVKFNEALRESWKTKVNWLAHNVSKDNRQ
Assay: Inhibition of full length recombinant human N-terminal His6-tagged PI3K p110delta/human p85alpha expressed in baculovirus infected sf21 cells using PIP2 as substrate preincubated for 30 mins followed by substrate addition by HTRF assay
Just a reminder that ties go to 0 (no): only IC50 strictly below 10 nM counts as 1 (yes).

C[C@H](Nc1ncnc(N)c1C(F)(F)F)c1nn2cccc2c(=O)n1-c1ccccc1 | 0 (no)
N#Cc1c(N)ncnc1NC1(c2nn3cccc3c(=O)n2-c2ccccc2)CC1 | 0 (no)
C[C@H](Nc1ccnc2ccnn12)c1nn2cccc2c(=O)n1-c1ccccc1 | 0 (no)

Prompt: Does this compound meet the criterion IC50 < 10 nM? N#Cc1c(N)ncnc1NC(CC(F)(F)F)c1nn2cccc2c(=O)n1-c1ccccc1 (stereo not given)
Completion: 0 (no)

Prompt: Next: `C[C@H](Nc1ncnc(N)c1C#N)c1nn2c(C#N)ccc2c(=O)n1-c1ccccc1`
Completion: 1 (yes)

Prompt: Next: `Cc1ccn2nc([C@H](C)Nc3ncnc(N)c3C#N)n(-c3ccccc3)c(=O)c12`
Completion: 1 (yes)

Prompt: Next: `C[C@H](Nc1ncnc(N)c1F)c1nn2cccc2c(=O)n1-c1ccccc1`
Completion: 0 (no)

Prompt: Next: `N#Cc1c(N)ncnc1N1CCC[C@H]1c1nn2cccc2c(=O)n1-c1ccccc1`
Completion: 1 (yes)

Prompt: Next: `CC[C@H](Nc1ncnc2[nH]cnc12)c1nn2cccc2c(=O)n1-c1ccccc1`
Completion: 0 (no)

Prompt: Next: `C[C@H](Nc1ncnc2[nH]cc(F)c12)c1nn2cccc2c(=O)n1-c1ccccc1`
Completion: 1 (yes)

Prompt: Next: `N#Cc1c(N)ncnc1N[C@@H](CCO)c1nn2cccc2c(=O)n1-c1ccccc1`
Completion: 1 (yes)

Prompt: Next: `C[C@H](Nc1ncnc2[nH]ccc12)c1nn2cccc2c(=O)n1-c1ccccc1`
Completion: 0 (no)

----------
Molecular target: Cytochrome P450 1A2 (Homo sapiens)
Sequence (P05177 whole entry): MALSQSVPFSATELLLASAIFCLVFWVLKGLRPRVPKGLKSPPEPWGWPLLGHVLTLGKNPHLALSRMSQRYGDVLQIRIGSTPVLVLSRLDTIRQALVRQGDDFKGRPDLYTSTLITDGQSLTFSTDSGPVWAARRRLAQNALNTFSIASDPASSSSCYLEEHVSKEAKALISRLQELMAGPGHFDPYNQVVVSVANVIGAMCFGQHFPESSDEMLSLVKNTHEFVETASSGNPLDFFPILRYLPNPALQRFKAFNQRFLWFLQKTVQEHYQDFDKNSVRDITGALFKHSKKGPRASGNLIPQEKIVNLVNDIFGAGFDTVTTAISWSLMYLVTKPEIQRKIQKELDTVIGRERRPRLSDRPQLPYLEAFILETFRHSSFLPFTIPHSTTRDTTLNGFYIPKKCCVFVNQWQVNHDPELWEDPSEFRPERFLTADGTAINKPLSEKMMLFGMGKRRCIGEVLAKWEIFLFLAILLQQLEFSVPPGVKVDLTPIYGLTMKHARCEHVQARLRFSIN
pIC50: −log10 of the molar value.
readout.type: pIC50

Prompt: # get_value(readout='pIC50', item= `C[C@H](Nc1ncnc(N)c1C#N)c1nn2ccc(C#N)c2c(=O)n1-c1ccccc1` )
Completion: < 4.60

----------
Assay: Apparent permeability of compound at 20 uM after 5 hrs by PAMPA
Assay type: ADME
readout.type: Papp at 5 h, 20 µM (×10⁻⁶ cm/s)
Numbers only, in ×10⁻⁶ cm/s.

Prompt: # get_value(readout='Papp at 5 h, 20 µM', item= `C[C@H](Nc1ncnc(N)c1C#N)c1nn2ccc(C#N)c2c(=O)n1-c1ccccc1` )
Completion: 2.8

----------
Biological target: Cytochrome P450 2D6 (Homo sapiens, UniProt P10635)
Sequence (P10635 whole entry): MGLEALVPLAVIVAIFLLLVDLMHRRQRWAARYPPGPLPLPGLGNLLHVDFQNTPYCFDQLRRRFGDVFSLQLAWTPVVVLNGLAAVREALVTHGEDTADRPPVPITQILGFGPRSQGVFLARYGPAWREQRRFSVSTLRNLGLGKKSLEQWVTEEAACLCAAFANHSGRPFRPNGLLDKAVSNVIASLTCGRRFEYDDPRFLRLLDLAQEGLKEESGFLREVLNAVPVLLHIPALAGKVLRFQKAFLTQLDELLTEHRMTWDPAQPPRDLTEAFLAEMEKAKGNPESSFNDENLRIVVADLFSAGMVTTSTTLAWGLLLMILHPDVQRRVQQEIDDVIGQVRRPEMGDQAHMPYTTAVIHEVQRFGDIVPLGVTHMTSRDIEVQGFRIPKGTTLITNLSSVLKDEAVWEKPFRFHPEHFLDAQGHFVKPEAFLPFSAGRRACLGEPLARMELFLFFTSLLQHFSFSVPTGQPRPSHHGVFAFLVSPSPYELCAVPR
pIC50: −log10 of the molar value.
readout.type: pIC50

Prompt: What is its pIC50 for Cytochrome P450 2D6 (Homo sapiens, UniProt P10635)? Entry: `C[C@H](Nc1ncnc(N)c1C#N)c1nn2ccc(C#N)c2c(=O)n1-c1ccccc1`
Completion: < 4.60

----------
Test: Drug metabolism in rat liver microsomes assessed as disappearance of parent compound at 5 uM after 30 mins in presence of NADPH by UPLC-MS/MS analysis
So I've got a bunch of molecules here, and I need their metabolised at 0.5 h, 5 µM values.
Answers are plain numbers, in %.

For every item in the list below, what is its measured metabolised at 0.5 h, 5 µM?
1. CC[C@H](Nc1ncnc2[nH]cnc12)c1nn2cccc2c(=O)n1-c1ccccc1
2. C[C@H](Nc1ncnc(N)c1C#N)c1nn2ccc(F)c2c(=O)n1-c1ccccc1
3. C[C@H](Nc1ncnc2[nH]ccc12)c1nn2cccc2c(=O)n1-c1ccccc1
4. C[C@H](Nc1nc(N)nc2[nH]cnc12)c1nn2cccc2c(=O)n1-c1ccccc1
5. C[C@H](Nc1ncnc(N)c1C#N)c1nn2ccnc2c(=O)n1-c1ccccc1
6. CC[C@H](Nc1ncnc(N)c1C#N)c1nn2cccc2c(=O)n1-c1ccccc1
7. C[C@H](Nc1nc(N)nc(N)n1)c1nn2cccc2c(=O)n1-c1ccccc1
8. C[C@H](Nc1ncnc(N)c1C(F)(F)F)c1nn2cccc2c(=O)n1-c1ccccc1

Completion:
1. 38
2. 9
3. 44
4. 30
5. 14
6. 32
7. 25
8. 51

For every item in the list below, what is its measured metabolised at 0.5 h, 5 µM?
1. C[C@H](Nc1ccnc2ccnn12)c1nn2cccc2c(=O)n1-c1ccccc1
2. C[C@H](Nc1ncnc(N)c1C#N)c1nn2cc(F)cc2c(=O)n1-c1ccccc1

Completion:
100
23

----------
Test: Protein binding in human plasma at 1 uM by LC-MS/MS analysis
Type: ADME, cell-free
Settings: read-out: PPB
readout.type: fraction unbound at 1 µM

Prompt: # get_value(readout='fraction unbound at 1 µM', item= `C[C@H](Nc1ncnc(N)c1C#N)c1nn2ccc(C#N)c2c(=O)n1-c1ccccc1` )
Completion: 0.046 to 0.05

----------
Molecular target: PI3-kinase p110-delta/p85-alpha (Homo sapiens, UniProt O00329)
Assay: Inhibition of full length recombinant human N-terminal His6-tagged PI3K p110delta/human p85alpha expressed in baculovirus infected sf21 cells using PIP2 as substrate preincubated for 30 mins followed by substrate addition by HTRF assay
So I've got a bunch of molecules here, and I need their log10 of IC50 values.
Heads up: the numbers are on a log10 scale; they represent IC50 in nM.

Known results for molecules:
C[C@H](Nc1ncnc(N)c1C#N)c1nn2ccc(C(F)(F)F)c2c(=O)n1-c1ccccc1 | 0.48
C[C@H](Nc1ncnc(N)c1C#N)c1nn2ccc(F)c2c(=O)n1-c1ccccc1 | 0.04
CC[C@H](Nc1ncnc(N)c1C#N)c1nn2cccc2c(=O)n1-c1ccccc1 | 1.04

For every item in the list below, what is its measured log10 of IC50?
1. Cc1ccn2nc(C(C)n3cnc4c(N)ncnc43)n(-c3ccccc3)c(=O)c12 (stereo not given)
2. C[C@H](Nc1ncnc(N)c1C#N)c1nn2ccnc2c(=O)n1-c1ccccc1

Completion:
1: 1.88; 2: 1.76

----------
Target: Phosphatidylinositol 4,5-bisphosphate 3-kinase catalytic subunit delta isoform (Homo sapiens)
Test: Inhibition of PI3Kdelta in human THP1 cells assessed as reduction in MCSF-stimulated akt phosphorylation at Thr308 preincubated for 30 mins followed by MCSF stimulation for 3 mins by ELISA
So I've got a bunch of compounds here, and I need their IC50 values.
Give bare numbers, in nM.

For every item in the list below, what is its measured IC50?
1. C[C@H](Nc1ncnc(N)c1C#N)c1nn2ccc(F)c2c(=O)n1-c1ccccc1
2. N#Cc1c(N)ncnc1N[C@@H](CCO)c1nn2cccc2c(=O)n1-c1ccccc1
3. C[C@H](Nc1ncnc(N)c1C#N)c1nn2ccnc2c(=O)n1-c1ccccc1
4. C[C@H](Nc1ncnc(N)c1C#N)c1nn2cc(F)cc2c(=O)n1-c1ccccc1
5. N#Cc1c(N)ncnc1N1CCC[C@H]1c1nn2cccc2c(=O)n1-c1ccccc1

Completion:
3.8
16
210
51
6.6

----------
Experiment: Protein binding in mouse plasma at 1uM by LC-MS/MS analysis
Type: ADME, cell-free
Settings: read-out: PPB
readout.type: fraction unbound at 1 µM

Prompt: # get_value(readout='fraction unbound at 1 µM', item= `C[C@H](Nc1ncnc(N)c1C#N)c1nn2ccc(C#N)c2c(=O)n1-c1ccccc1` )
Completion: 0.35 to 0.4

----------
So I've got a bunch of compounds here, and I need their log10 IC50 values.
Target: Phosphatidylinositol 4,5-bisphosphate 3-kinase catalytic subunit delta isoform (Homo sapiens, UniProt O00329)
Sequence (O00329 whole entry, canonical isoform): as the sequence (O00329 whole entry) above
Assay: Inhibition of PI3Kdelta in human THP1 cells assessed as reduction in MCSF-stimulated akt phosphorylation at Thr308 preincubated for 30 mins followed by MCSF stimulation for 3 mins by ELISA
Heads up: the numbers are on a log10 scale; they represent IC50 in nM.

Known results for compounds:
N#Cc1c(N)ncnc1NC(CC(F)(F)F)c1nn2cccc2c(=O)n1-c1ccccc1 (stereo not given) | 3.20
C[C@H](Nc1ncnc(N)c1C#N)c1nn2ccc(CO)c2c(=O)n1-c1ccccc1 | 1.54
C[C@H](Nc1nc(N)nc2[nH]cnc12)c1nn2cccc2c(=O)n1-c1ccccc1 | 0.81
C[C@H](Nc1ncnc(N)c1C#N)c1nn2c(C#N)ccc2c(=O)n1-c1ccccc1 | 1.04

Could you now look at the following compound, please?
Prompt: # get_value(readout='log10 IC50', item= `C[C@H](Nc1ncnc2[nH]cnc12)c1nn2cccc2c(=O)n1-c1ccccc1` )
Completion: 0.85

----------
Assay: Apparent volume of distribution in Wistar rat at 1 mg/kg, iv
Format: ADME, organism-based
Details: in vivo, read-out: Vz
So I've got a bunch of molecules here, and I need their Vd values.
Give bare numbers, in L/kg.

Known results for molecules:
C[C@H](Nc1ncnc(N)c1C#N)c1nn2ccc(C(F)(F)F)c2c(=O)n1-c1ccccc1 | 2.4
CC[C@H](Nc1ncnc2[nH]cnc12)c1nc2cccc(F)c2c(=O)n1-c1ccccc1 | 2.2

Prompt: # get_value(readout='Vd', item= `C[C@H](Nc1ncnc(N)c1C#N)c1nn2ccc(C#N)c2c(=O)n1-c1ccccc1` )
Completion: 2.6
